Molecular target: OX1 (Homo sapiens)
Sequence (O43613 1-425): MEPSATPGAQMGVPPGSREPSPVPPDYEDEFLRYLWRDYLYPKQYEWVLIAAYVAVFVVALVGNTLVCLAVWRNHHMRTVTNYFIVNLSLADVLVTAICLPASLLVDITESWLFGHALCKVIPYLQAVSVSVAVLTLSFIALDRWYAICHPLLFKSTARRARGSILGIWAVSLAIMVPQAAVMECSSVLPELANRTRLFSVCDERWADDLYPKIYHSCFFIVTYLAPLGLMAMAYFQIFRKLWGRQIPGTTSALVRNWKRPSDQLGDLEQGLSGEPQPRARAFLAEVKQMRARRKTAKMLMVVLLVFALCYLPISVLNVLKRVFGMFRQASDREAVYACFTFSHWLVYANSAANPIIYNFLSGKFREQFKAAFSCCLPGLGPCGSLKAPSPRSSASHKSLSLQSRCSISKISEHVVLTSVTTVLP
Assay: Measurement of orexin receptor-binding ability ([125I]-OX-A, cell membranes, OX1)
Design: expressed in transfected cells; host or cells: CHO cells (membrane preparation)
Settings: membranes of recombinant CHO cells expressing OX1, 0.2 nM [125I]-OX-A; read-out: OX1 (IC50)
// returns Not met unless IC50 is strictly below 10 nM, in which case Met

# TEST_SMILES, CLASS_NAME
records = [
    ("COCc1nc(C)ncc1OC[C@@]1(c2cccc(F)c2)C[C@H]1C(=O)Nc1cc(C)c(F)cn1", "Met"),
    ("Cc1ncc(OC[C@@]2(c3ccccc3)C[C@H]2C(=O)Nc2cc(C(F)(F)F)ccn2)c(C)n1", "Not met"),
    ("Cc1ncc(OC[C@@]2(c3ccccc3)C[C@H]2C(=O)Nc2cc(C)c(Cl)cn2)c(C)n1", "Not met"),
]

Strictly below 10 nM: is that where IC50 of `CCc1nc(C)ncc1OC[C@@]1(c2cccc(F)c2)C[C@H]1C(=O)Nc1ccc(F)cc1` sits?
Met

Okay, and `Cc1ncc(OC[C@@]2(c3ccccc3)C[C@H]2C(=O)Nc2ccc(F)cn2)c(C)n1` ?
Not met

Another: `Cc1ncc(N(C)C[C@@]2(c3cccc(F)c3)C[C@H]2C(=O)Nc2ccc(F)cc2)c(C)n1`
Not met

# iterate: `Cc1ncc(OC[C@@]2(c3ccccc3)C[C@H]2C(=O)Nc2ccc3ccncc3c2)c(C)n1`
Not met

* * *

Target: OX2 (Homo sapiens, UniProt O43614)
Sequence (O43614 1-444): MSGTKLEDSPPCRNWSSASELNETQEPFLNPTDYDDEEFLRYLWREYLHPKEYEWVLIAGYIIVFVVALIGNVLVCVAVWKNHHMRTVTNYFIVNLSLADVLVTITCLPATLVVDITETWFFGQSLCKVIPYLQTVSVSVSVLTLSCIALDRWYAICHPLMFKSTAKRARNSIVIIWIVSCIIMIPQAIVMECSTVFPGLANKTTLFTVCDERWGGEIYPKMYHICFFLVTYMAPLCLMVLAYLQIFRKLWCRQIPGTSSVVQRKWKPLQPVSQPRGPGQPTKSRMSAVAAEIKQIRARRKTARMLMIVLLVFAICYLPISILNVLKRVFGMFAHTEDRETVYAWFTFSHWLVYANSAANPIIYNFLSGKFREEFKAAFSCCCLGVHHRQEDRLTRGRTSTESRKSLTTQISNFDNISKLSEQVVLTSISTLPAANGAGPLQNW
Assay: Measurement of orexin receptor-binding ability ([125I]-OX-A, cell membranes, OX2)
Set-up: expressed in transfected cells; host or cells: CHO cells (membrane preparation)
Details: OX2 (IC50) nM, membranes of recombinant CHO cells expressing OX2, 0.2 nM [125I]-OX-A
MEASURED_ATTRIBUTE: IC50 (nM)
// units = nM; emit number, no label

IC50 lookup needed for Cc1ncc(OC[C@@]2(c3cccc(F)c3)C[C@H]2C(=O)Nc2ccccn2)c(C)n1 [Example 87] , thanks.
10

Next up: Cc1ncc(OCC2(c3cccc(Br)c3)CC2C(=O)Nc2ccc(F)cn2)c(C)n1 (stereo not shown) [Example 271]
5

And what about the compound Cc1ncc(OCC2(c3cccc(Cl)c3)CC2C(=O)Nc2ccc(F)cn2)c(C)n1 (stereo not shown) [Example 154] ?
7

Request: COc1cccc(C2(COc3cnc(C)nc3C)CC2C(=O)Nc2ccc(C#N)cn2)c1 (stereo not shown) [Example 183]
42
